Test system: OCI-AML3-Control cell line
Test summary: Cell viability assay, OCI-AML3-Control
Type: cell-based
Parameters: unit of the concentration uncertain
Test context: 168 h, valspodar (1 (unit uncertain)), 7 days, Table 10; read-out: IC50 OCI-AML3-Control (Compound + valspodar)

# Query smiles, IC50 / nM
measured = [
    ("CNc1nc(NC2CCN(Cc3ccc4c(cc(C#N)n4C[C@H](C)N4CCN(S(C)(=O)=O)CC4)c3C)CC2)c2cc(CC(F)(F)F)sc2n1", 19.2),
    ("CCN(C(=O)c1cc(F)ccc1Oc1cncnc1N1CC2(CCN(C[C@H]3CC[C@H](NS(=O)(=O)CC)CC3)CC2)C1)C(C)C", 41.5),
]

----------
Target: P-gp (Homo sapiens)
Test summary: P-gp substrate assessment using MDR1-MDCK monolayers (Example 1, +/- valspodar)
Assay type: in vitro ADME
Parameters: expressed in transfected cells; host or cells: MDR1-MDCK cells
Test context: dog; 12-well plates, QC of MDR1-MDCK cell batch; read-out: A-to-B Papp (cell batch quality control)
Test readout: Papp A→B (×10⁻⁶ cm/s)

# Query smiles, Target, Numeric value
records = [
    ("C[C@H]1O[C@@H](O[C@H]2[C@@H](O)C[C@H](O[C@H]3[C@@H](O)C[C@H](O[C@H]4CC[C@@]5(C)[C@H](CC[C@@H]6[C@@H]5C[C@@H](O)[C@]5(C)[C@@H](C7=CC(=O)OC7)CC[C@]65O)C4)O[C@@H]3C)O[C@@H]2C)C[C@H](O)[C@@H]1O", "P-gp (Homo sapiens)", 0.07),
]

----------
System: MOLM13-Control cell line
Test summary: Cell viability assay, MOLM13-Control
Assay type: cell-based
Parameters: unit of the concentration uncertain
Test context: 168 h; posaconazole (1.5 (unit uncertain)), 7 days, Table 7; read-out: IC50 MOLM13-Control (Compound + posaconazole)
IC50: recorded values

# Query smiles, IC50
measured = [
    ("CCN(C(=O)c1cc(F)ccc1Oc1cncnc1N1CC2(CCN(C[C@H]3CC[C@H](NS(=O)(=O)CC)CC3)CC2)C1)C(C)C", "24.8 nM"),
    ("CNc1nc(NC2CCN(Cc3ccc4c(cc(C#N)n4C[C@H](C)N4CCN(S(C)(=O)=O)CC4)c3C)CC2)c2cc(CC(F)(F)F)sc2n1", "16.5 nM"),
]

----------
Target: P-gp (Homo sapiens)
Test summary: P-gp substrate assessment using MDR1-MDCK monolayers (Example 1, +/- valspodar)
Type: in vitro ADME
Set-up: expressed in transfected cells; host or cells: MDR1-MDCK cells
Test context: dog, MDCK-MDR1, pH 7.4, A-to-B, 5 μM test article, without valspodar, 120 min
Test readout: recovery at 120 min, 5 μM

# Query smiles, Result
measured = [
    ("CNc1nc(NC2CCN(Cc3ccc4c(cc(C#N)n4C[C@H](C)N4CCN(S(C)(=O)=O)CC4)c3C)CC2)c2cc(CC(F)(F)F)sc2n1", "70%"),
]

----------
Target: P-gp (Homo sapiens, UniProt P08183)
Sequence (P08183 whole entry): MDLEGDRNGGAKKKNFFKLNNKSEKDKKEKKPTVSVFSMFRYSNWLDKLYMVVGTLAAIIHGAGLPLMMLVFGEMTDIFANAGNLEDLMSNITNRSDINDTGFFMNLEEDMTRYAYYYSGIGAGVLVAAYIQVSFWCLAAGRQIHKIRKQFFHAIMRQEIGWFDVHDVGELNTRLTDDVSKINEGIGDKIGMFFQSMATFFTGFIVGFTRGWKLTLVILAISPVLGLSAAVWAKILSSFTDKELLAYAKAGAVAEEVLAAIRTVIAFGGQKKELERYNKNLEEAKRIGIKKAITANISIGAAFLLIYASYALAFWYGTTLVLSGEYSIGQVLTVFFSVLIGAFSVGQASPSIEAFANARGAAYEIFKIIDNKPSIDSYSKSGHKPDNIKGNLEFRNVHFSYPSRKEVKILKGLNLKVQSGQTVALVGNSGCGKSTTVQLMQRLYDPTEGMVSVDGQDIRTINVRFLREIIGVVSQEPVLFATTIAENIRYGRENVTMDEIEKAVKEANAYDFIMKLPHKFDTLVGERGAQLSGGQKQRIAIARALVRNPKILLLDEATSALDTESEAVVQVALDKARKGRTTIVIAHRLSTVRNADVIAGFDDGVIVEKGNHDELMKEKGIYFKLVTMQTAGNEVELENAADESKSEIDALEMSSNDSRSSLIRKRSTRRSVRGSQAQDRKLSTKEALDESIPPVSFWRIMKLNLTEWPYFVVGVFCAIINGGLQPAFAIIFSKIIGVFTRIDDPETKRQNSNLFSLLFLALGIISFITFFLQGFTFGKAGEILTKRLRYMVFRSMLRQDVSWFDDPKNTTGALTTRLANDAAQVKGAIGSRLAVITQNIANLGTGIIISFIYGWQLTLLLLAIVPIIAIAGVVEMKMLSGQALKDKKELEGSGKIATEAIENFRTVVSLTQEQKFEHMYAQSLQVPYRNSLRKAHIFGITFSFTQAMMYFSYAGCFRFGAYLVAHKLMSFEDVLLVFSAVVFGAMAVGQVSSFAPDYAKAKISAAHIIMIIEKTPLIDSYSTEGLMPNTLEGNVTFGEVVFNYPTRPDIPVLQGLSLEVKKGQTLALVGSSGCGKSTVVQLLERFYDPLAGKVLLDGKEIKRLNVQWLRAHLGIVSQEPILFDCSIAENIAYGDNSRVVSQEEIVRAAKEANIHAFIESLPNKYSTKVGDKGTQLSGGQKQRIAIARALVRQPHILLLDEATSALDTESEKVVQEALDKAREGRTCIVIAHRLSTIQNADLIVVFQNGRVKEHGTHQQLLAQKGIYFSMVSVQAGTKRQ
Test summary: P-gp substrate assessment using MDR1-MDCK monolayers (Example 1, +/- valspodar)
Format: in vitro ADME
Set-up: expressed in transfected cells; host or cells: MDR1-MDCK cells
Test context: dog, MDCK-MDR1, pH 7.4, B-to-A, 5 μM test article, without valspodar, 120 min
Test readout: recovery at 120 min, 5 μM (%)

# Query smiles, Test readout, Unit info, Numeric value
rows = [
    ("CNc1nc(NC2CCN(Cc3ccc4c(cc(C#N)n4C[C@H](C)N4CCN(S(C)(=O)=O)CC4)c3C)CC2)c2cc(CC(F)(F)F)sc2n1", "recovery at 120 min, 5 μM", "%", 83),
]

----------
Target: P-gp (Homo sapiens)
Test summary: in vitro
Test context: MDCK-MDR1, pH 7.4
Papp B→A at 2 h: recorded values

# Molecule, Papp B→A at 2 h / nm/s
rows = [
    ("CC(=O)CC(c1ccccc1)c1c(O)c2ccccc2oc1=O (stereo not shown)", 323),
    ("CN(C)C(=O)C(CCN1CCC(O)(c2ccc(Cl)cc2)CC1)(c1ccccc1)c1ccccc1 [Loperamide]", 612),
    ("CNc1nc(NC2CCN(Cc3ccc4c(cc(C#N)n4C[C@H](C)N4CCN(S(C)(=O)=O)CC4)c3C)CC2)c2cc(CC(F)(F)F)sc2n1", 18.4),
    ("CNC(=C[N+](=O)[O-])NCCSCc1ccc(CN(C)C)o1", 43.5),
]

----------
Test system: MV4;11-PGP cell line
Test summary: CellTiter-Glo cell viability assay, MV4;11-PGP
Assay type: cell-based
Parameters: unit of the concentration uncertain
Test context: second set of experiments, posaconazole (1.5 (unit uncertain)), Table 5; read-out: IC50 MV4;11-PGP (Compound + posaconazole)
pIC50: −log10 of the molar value.
Respond with 1 (yes) for pIC50 values of 8 and above, 0 (no) for values below.

# Query smiles, Category label
rows = [
    ("COc1cc(-c2ccc(CN[C@H]3C[C@@H](O)[C@@H](N(C)c4ncnc5sc(CC(F)(F)F)cc45)C3)cc2)nnc1OC", "1 (yes)"),
    ("C=CC(=O)N[C@@H]1CCCN(Cc2ccnc(C(=O)Nc3ccc(-c4cc5c(N6CCOCC6)ncnc5[nH]4)cc3)c2)C1", "0 (no)"),
    ("CNc1nc(NC2CCN(Cc3ccc4c(cc(C#N)n4C[C@H](C)N4CCN(S(C)(=O)=O)CC4)c3C)CC2)c2cc(CC(F)(F)F)sc2n1", "1 (yes)"),
]

----------
Target: P-gp (Homo sapiens)
Test summary: P-gp substrate assessment using MDR1-MDCK monolayers (Example 1, +/- valspodar)
Type: in vitro ADME
Set-up: expressed in transfected cells; host or cells: MDR1-MDCK cells
Test context: dog, MDCK-MDR1, pH 7.4; Papp (B-to-A)/Papp (A-to-B), without valspodar
Test readout: efflux ratio at 120 min, 5 μM

# Query smiles, Result
measured = [
    ("CNc1nc(NC2CCN(Cc3ccc4c(cc(C#N)n4C[C@H](C)N4CCN(S(C)(=O)=O)CC4)c3C)CC2)c2cc(CC(F)(F)F)sc2n1", 105),
]

----------
pIC50: recorded values
System: MOLM13-Control cell line
Test summary: Cell viability assay, MOLM13-Control
Assay type: cell-based
Test context: 168 h; 7 days, Table 8; read-out: IC50 MOLM13-Control (compound + DMSO)
pIC50: −log10 of the molar value.

# Query smiles, Target, pIC50
rows = [
    ("CCN(C(=O)c1cc(F)ccc1Oc1cncnc1N1CC2(CCN(C[C@H]3CC[C@H](NS(=O)(=O)CC)CC3)CC2)C1)C(C)C", "MOLM13-Control cell line", 7.55),
    ("CNc1nc(NC2CCN(Cc3ccc4c(cc(C#N)n4C[C@H](C)N4CCN(S(C)(=O)=O)CC4)c3C)CC2)c2cc(CC(F)(F)F)sc2n1", "MOLM13-Control cell line", 7.57),
]

----------
Target: P-gp (Homo sapiens)
Test summary: P-gp substrate assessment using MDR1-MDCK monolayers (Example 1, +/- valspodar)
Format: in vitro ADME
Set-up: expressed in transfected cells; host or cells: MDR1-MDCK cells
Test context: dog, MDCK-MDR1, pH 7.4, B-to-A, without valspodar; read-out: Papp R3

# Query smiles, Unit info, Papp B→A at 120 min, 5 μM
measured = [
    ("CNc1nc(NC2CCN(Cc3ccc4c(cc(C#N)n4C[C@H](C)N4CCN(S(C)(=O)=O)CC4)c3C)CC2)c2cc(CC(F)(F)F)sc2n1", "×10⁻⁶ cm/s", 12.6),
]

----------
Tested on: MV4;11-PGP cell line
Test summary: CellTiter-Glo cell viability assay, MV4;11-PGP
Type: cell-based
Test context: 144 h, second set of experiments, 0 to 1000 nM, Table 5; read-out: IC50 MV4;11-PGP (Compound + DMSO)
pIC50: −log10 of the molar value.

# Compound, pIC50
measured = [
    ("CNc1nc(NC2CCN(Cc3ccc4c(cc(C#N)n4C[C@H](C)N4CCN(S(C)(=O)=O)CC4)c3C)CC2)c2cc(CC(F)(F)F)sc2n1 [Compound I]", 7.72),
    ("CCN(C(=O)c1cc(F)ccc1Oc1nncnc1N1CCC2(C1)CN([C@H](CCCN(C)CCOC)C(C)C)C2)C(C)C [Compound B]", 6.97),
    ("C=CC(=O)N[C@@H]1CCCN(Cc2ccnc(C(=O)Nc3ccc(-c4cc5c(N6CCOCC6)ncnc5[nH]4)cc3)c2)C1 [Compound C]", 6.15),
    ("CCN(C(=O)c1cc(F)ccc1Oc1cncnc1N1CC2(CCN(C[C@H]3CC[C@H](NS(=O)(=O)CC)CC3)CC2)C1)C(C)C [SNDX-5613]", 6.74),
    ("COc1cc(-c2ccc(CN[C@H]3C[C@@H](O)[C@@H](N(C)c4ncnc5sc(CC(F)(F)F)cc45)C3)cc2)nnc1OC [Compound A]", 7.66),
]
